Value source: PubChem BioAssay (NCI)

Exercise: state measured growth for each of the compounds provided.
Test system: SK-OV-3 ovarian
Assay Explanation: NCI-60 one-dose screen, 48 h (100 = growth as untreated, 0 = no growth, -100 = all killed)
Conditions Used: 10 µM unless noted
This is part of a sample that, as a whole, favours compounds with a hit. Of some 83,000 tested, about 20% had one in any assay.
// return numeric value only (unit: %, not printed)

Reported growth of N#Cc1c(-c2ccc(Cl)cc2)nc2c(c(-c3ccccc3)nn2-c2ccccc2)c1-c1ccc(O)cc1 : 96.9

Note to self: growth recorded for CC(=O)CC(c1ccccc1)c1c(C)[nH]c2ccccc12 (centres undefined) was 104

Looking up Cc1ncc(C(=O)Nc2ccc(CN3CCN(C)CC3)c(C(F)(F)F)c2)cc1C#Cc1ccc(N)nc1 , I found its growth recorded as 16.7

Looking up COc1ccc2c(c1)C(C)Cc1c(ncnc1-n1c(C)nc3ccccc31)N2C (centres undefined) , I see its growth listed as 31.5

response.value for C=C1C(=O)O[C@H]2[C@H]1CC/C(COC(=O)CSCC(=O)OC/C1=C/CC[C@@]3(C)O[C@H]3[C@H]3OC(=O)C(=C)[C@@H]3CC1)=C\CC[C@@]1(C)O[C@@H]21 (field: growth) = 97.5

Per the record, COc1ccc(-c2ncnc3c2ncn3CC#CCCl)cc1 has growth of 85.8

In plain terms, Brc1ccc2[nH]cc(-c3nc(-c4c[nH]c5ccncc45)cs3)c2c1 has a documented growth of 87.6

Per the record, COc1cc(/C=N/NC(=O)c2ccc(C)nc2)cc(OC)c1OC has growth of 112

Form: compound = Cc1nn(-c2ccccc2)c(-n2ccnc2)c1/C=N/Nc1nc(-c2ccc(Cl)c(Cl)c2)cs1 ; growth = 89.5

Quick note, growth for O=C(Nc1c2ccccc2nc2ccccc12)c1ccccc1CN1C(=O)c2ccccc2C1=O landed at 35.6

// sample CCC12CCC[N+]3([O-])CCC4(C(=Nc5ccccc54)C(O)(C(=O)OC)C1)C23 (centres undefined) , its growth was 103

Sure, the documented growth for C=C1CC[C@H](C(C)C)[C@@H]2[C@H]1[C@H]1CC(=C)[C@@H](O)CC[C@@](C)(O)[C@@H]2O1 is 109

Given item Cc1ccc(/C=C(\C#N)n2nc3cccc(F)c3n2)cc1 , the value recorded as its growth is 107

So for CN(C)CCNc1nc2ccccc2c2c(=O)c3cc(F)ccc3sc12 , the logged growth turned out to be 77.1

Memo: CC[C@H](C)C(=O)O[C@H]1CCC=C2C=C[C@H](C)[C@H](CC[C@@H]3CC=CC(=O)O3)[C@H]21 , reported growth: 99.6

Reported growth of CC1(C)C2CC1C1(/C=N\Nc3ccccc3)C(C2)C(C#N)(C#N)C1(C#N)C#N (centres undefined) : 97.4

growth measured on O=C1NC(=O)C(Cn2cnc3ccccc32)N1 (centres undefined) = 101

The recorded growth for C=C1C(=O)O[C@H]2[C@H]1CC/C(COC(=O)NCCOCCOCC(=O)Nc1ccc(OC)c(C(N)=O)c1O)=C\CC[C@@]1(C)O[C@@H]21 is 109

The compound CCCCn1c(=O)c(-c2cc(-c3ccc(Cl)cc3)nc(-c3ccc(Cl)cc3)c2)cc2ccc(Cl)cc21 showed growth equal to 99.6

Per the records, this compound ( COc1ccc2c(c1)nc(NNC(=O)c1cnccn1)c1cccn12 ) has growth equal to 26.5

# growth (compound: C/C(=C\C(=O)c1ccc(Cl)cc1)c1ccc(Cl)cc1 ) is 94.3

Documented growth of O=C(COc1ccc(/C=C2\Cc3ccc(Cl)cc3C2=O)cc1)Nc1nc2ccccc2s1 : 104

The reported growth of the compound CN1C(=C2C(=O)OC(C)(C)OC2=O)CCC1C(=O)NCc1ccc(Cl)cc1Cl (centres undefined) was 85.8

Quick note, growth for Cn1cc(-c2cc3ncnc(Nc4ccc(CC(=O)Nc5cc(C(C)(C)C)on5)cc4)c3s2)cn1 landed at 10.4

The recorded growth for Cc1nc(S(=O)(=O)c2ccccc2)c(S(=O)(=O)Cc2ccc([N+](=O)[O-])cc2)o1 is 99.1

Noted for Nc1nn(C(=O)Nc2ccc(Cc3ccccc3)cc2)c2ccc(Cl)cc12 : its growth reads 91

Looking up O=C(Nn1c(NCC(=O)N2c3ccccc3Sc3ccccc32)nnc1-c1ccc(O)cc1)c1ccccc1 , I see its growth listed as 101

// growth value for O=c1c2cc(C(F)(F)F)ccc2sc2c(NCCCNCCO)nc3ccccc3c12 : 74.9

Form: compound = CCCCN(C)N=Nc1ccc(C(N)=O)cc1 ; growth = 121

Recorded growth (compound COC(=O)[C@H](C)NC(=O)NC(=O)NC(=O)CI ): 107

The compound listed as Cc1ccc(-c2nc(N3CCN(CC(=O)Nc4ccc(Cl)c(C(F)(F)F)c4)CC3)c3ccccc3n2)cc1 has a reported growth of 84.7

Please fill in: growth reported for CCOC(=O)c1c(C)nc2c(c1N)CC(=O)N2Cc1ccc(F)cc1 = 95

Form field growth, entry CNC(=O)c1[nH]cc(-c2ccccc2)c1-c1cc(OC)c2c(c1OC)OCO2 : 108

Given item COc1ccc(-c2[nH]ncc2-c2cc3c(c(OC)c2)OCC(=O)N3)cc1 , the value recorded as its growth is 19.8

Reported growth ( CNCCCC12CCC(c3ccccc31)c1ccccc12 ) = 85.2

The compound listed as COc1cc(C2CC(c3cccc(Br)c3)=NN2C(C)=O)cc(OC)c1OC (centres undefined) has a reported growth of 45.3

// COc1ccc(/C=C2\Oc3cc(OCCN4CCC(Cc5ccccc5)CC4)ccc3C2=O)cc1OC : growth value = 87.8

Looking up CN1CCN(Cc2ccc(NC(=O)c3cncc(C#Cc4cnccc4C#N)c3)cc2C(F)(F)F)CC1 , I see its growth listed as 101

Short answer for CCOC(=O)Nc1ccc(-c2nc(-c3cccc(OCCN4CCOCC4)c3)c(-c3ccnc(Br)c3)[nH]2)cc1 : growth was 80.8
